# Target Under Test: cAMP-dependent protein kinase type I-alpha regulatory subunit [K244A] (Homo sapiens, UniProt P10644, K244A)
# Sequence (P10644 whole entry K244A): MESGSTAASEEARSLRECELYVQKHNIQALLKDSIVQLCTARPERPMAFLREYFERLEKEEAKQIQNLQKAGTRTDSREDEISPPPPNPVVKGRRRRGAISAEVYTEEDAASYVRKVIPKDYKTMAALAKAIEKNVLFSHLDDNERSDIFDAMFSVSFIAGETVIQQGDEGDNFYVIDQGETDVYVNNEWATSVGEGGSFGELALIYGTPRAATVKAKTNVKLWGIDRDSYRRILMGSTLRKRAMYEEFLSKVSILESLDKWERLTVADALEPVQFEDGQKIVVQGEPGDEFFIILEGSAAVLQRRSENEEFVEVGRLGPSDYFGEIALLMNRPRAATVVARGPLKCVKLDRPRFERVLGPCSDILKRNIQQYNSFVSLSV
# Protocol Summary: 8-[Fluo]-cAMP Fluorescence Polarization Binding Assay
pKd: −log10 of the molar value.

{"Compound": "Nc1ncnc2c1nc(SCCNC(=S)Nc1ccc(-c3c4ccc(=O)cc-4oc4cc(O)ccc34)c(C(=O)O)c1)n2C1OC2COP(=O)(O)OC2C1O (stereo unspecified) [8-[Fluo]-cAMP]", "pKd": 8.11}
